Tested on: RAW264.7
Experiment: Cytotoxicity against mouse RAW264.7 cells assessed as reduction in cell viability at 1 to 20 uM incubated for 24 hrs by MTT assay
Type: toxicity, cell-based
Conditions: raw264.7, 24 h, dose 1-20 µM
RECORDED METRIC: Activity

Worked cases, answers included:
SMILES RECORD	Activity
C=C1CC[C@H]2C(C)(C)CCC[C@]2(C)[C@H]1C/C=C(/C=O)CC(=O)OCc1cn(CCN2C(=O)C(=O)c3ccccc32)nn1	Non-Toxic
C=C1CC[C@H]2C(C)(C)CCC[C@]2(C)[C@H]1C/C=C(/C=O)CC=O	Non-Toxic
C=C1CC[C@H]2C(C)(C)CCC[C@]2(C)[C@H]1C/C=C(\CC(=O)OCc1cn(CCN2C(=O)C(=O)c3ccccc32)nn1)C(=O)OCc1cn(CCN2C(=O)C(=O)c3ccccc32)nn1	Non-Toxic
C=C1CC[C@H]2C(C)(C)CCC[C@]2(C)[C@H]1C/C=C(\CC(=O)OCc1cn(CCCN2C(=O)C(=O)c3cc(OC)ccc32)nn1)C(=O)OCc1cn(CCCN2C(=O)C(=O)c3cc(OC)ccc32)nn1	Non-Toxic
C=C1CC[C@H]2C(C)(C)CCC[C@]2(C)[C@H]1C/C=C(/C=O)CC(=O)OCc1cn(CCCN2C(=O)C(=O)c3cc(F)ccc32)nn1	Non-Toxic

Let's switch to this compound now.
Fill in Activity for record C=C1CC[C@H]2C(C)(C)CCC[C@]2(C)[C@H]1C/C=C(\CC(=O)OCc1cn(CCN2C(=O)C(=O)c3cc(Br)ccc32)nn1)C(=O)OCc1cn(CCN2C(=O)C(=O)c3cc(Br)ccc32)nn1
Non-Toxic
